This listing pairs molecules with measured melting point.

- CHEMICAL STRUCTURE: "Cn1c(=O)cc(-n2cncn2)n(Cc2ccccc2)c1=O"
  melting point: "91 to 93 °C"
- CHEMICAL STRUCTURE: "Cn1c(=O)cc(-n2ccnc2)n(Cc2ccccc2)c1=O"
  melting point: "138 to 142 °C"
- CHEMICAL STRUCTURE: "Cc1ccc(Cn2c(-n3ccnc3C)cc(=O)n(C)c2=O)cc1"
  melting point: "120 to 122 °C"
- CHEMICAL STRUCTURE: "Cc1cccc(Cn2c(-n3ccnc3)cc(=O)n(C)c2=O)c1"
  melting point: "123 to 124 °C"

Turning to the following molecule.
Would you mind telling me what melting point value was observed for `Cc1nccn1-c1cc(=O)n(C)c(=O)n1Cc1ccccc1` ? 138 to 140 °C
